test system: Fusarium graminearum; assay: Induction of growth of Fusarium graminearum after 4 to 12 days; assay type: organism-based; conditions: in vivo
measurement_type: Activity

compound="C=C1[C@@H]2CC[C@@H](C2)C1(C)C [(-)-CAMPHENE]" measured_value=Toxic
compound="CC1(C)C2CCC1(C)C(O)C2 (stereo not given)" measured_value=Toxic
compound="CC1=CCC2CC1C2(C)C (stereo not given)" measured_value=Toxic
compound=CC1=CC(=O)[C@@H]2C[C@H]1C2(C)C measured_value=Toxic
compound="CC12CCC(CC1=O)C2(C)C (stereo not given)" measured_value=Toxic

Values from ChEMBL document CHEMBL3045403
